# System: platelet rich plasma
# Test details: Test for platelet aggregation-inhibiting activity in rabbit platelet rich plasma
# Assay type: cell-based, rabbit (Japanese white; male)
# Experimental conditions: Oryctolagus cuniculus, Platelet, 0.5 h; aggregation induced by arachidonic acid (AA) 1 mM at final concentration; 30 minutes incubation in PRP; read-out: IC₅₀ (M) AA(1 mM)
# Description: The mixture was centrifuged at 1100 rpm at 20°C for 15 minutes. The upper layer is a platelet rich plasma (RRP), and the lower layer was centrifuged at 2500 rpm at 20°C for 10 minutes, so that a platelet poor plasma (PPP) was obtained. 10 µℓ of a solution of the compound to be tested with a concentration of 10⁻⁴ moℓ/ℓ was added to 200 µℓ of PRP, and the mixture was subjected to incubation for 30 minutes. […] The extent of the aggregation was measured by Agricometer (NKK, PAT-4A).
Property name: IC50 (M)
Answers are plain numbers, in M.

Entry COC(=O)C1=C(C)NC(C)=C(C(=O)OC/C=C/c2ccc(Cn3ccnc3)cc2)C1c1cccc([N+](=O)[O-])c1 (single isomer, unassigned; (+)) — recorded IC50 = 0.00014

###

# Tested on: platelet rich plasma
# Test details: Test for platelet aggregation-inhibiting activity in rabbit platelet rich plasma
# Type: cell-based, rabbit (Japanese white; male)
# Experimental conditions: Oryctolagus cuniculus, 0.5 h; aggregation induced by platelet activating factor (PAF) 10 µg/ml; 30 minutes incubation in PRP; read-out: IC₅₀ (M) PAF(10 µg/ml)
Property name: IC50
Quick note: number first, unit second.

Field IC50 (entry COC(=O)C1=C(C)NC(C)=C(C(=O)OC/C=C/c2ccc(Cn3ccnc3)cc2)C1c1cccc([N+](=O)[O-])c1 (single isomer, unassigned; (+)) ) reads 0.00011 M
